The measurements presented in this section are drawn from a melting point compilation (Tetko et al.).

// values below are reported melting point

Solved entries (count: 7):
{"mol": "NC(=O)CSc1ccccc1N", "readoutValue": "113 to 115 °C"}
{"mol": "OCc1nc2cc(Cl)ccc2s1", "readoutValue": "113 to 115 °C"}
{"mol": "C#CCNS(C)(=O)=O", "readoutValue": "56 to 58 °C"}
{"mol": "CON(C)C(=O)Cc1ccc(Cl)cc1", "readoutValue": "45 to 47 °C"}
{"mol": "COc1ccc(C(N)=NO)cc1OC", "readoutValue": "164 to 166 °C"}
{"mol": "OCCNc1ccc(Br)cc1", "readoutValue": "80 to 82 °C"}
{"mol": "O=C(O)c1ccc(F)c(S(=O)(=O)N2CCC2)c1", "readoutValue": "180 to 182 °C"}

query: Name the recorded melting point for Nc1cc(Br)ccc1I .
result: 49 to 51 °C
